Taken from PubChem BioAssay (NCI).

Test system: OVCAR-3 ovarian
Experiment: NCI tumour cell line growth inhibition, 48 h
Reported values of TGI for individual entries
assay_endpoint: TGI

1) O=c1c2c(-c3ccccc3)c3ccccc3nc2cnn1-c1ccccc1 :: > 100 µM
2) N#[N+]c1c([O-])c2ccccc2c2ccccc12 :: > 100 µM
3) Cc1nc2ccc(S(=O)(=O)NS(=O)(=O)c3ccc(-c4ccccc4)cc3)cc2c(=O)n1NS(=O)(=O)c1ccc(-c2ccccc2)cc1 :: > 100 µM
4) CCOC(=O)c1sc2c(c1OC(=O)c1cc(OC)c(OC)c(OC)c1)c(=O)n(-c1ccccc1)c(=S)n2-c1ccccc1 :: > 100 µM
5) COc1cccc(-c2cc(=O)c3cc4c(cc3[nH]2)OCO4)c1 :: 0.452 µM
6) COc1ccc(C2=NC(=O)NC2c2ccc(OC)cc2)cc1 (stereo unspecified) :: 35.3 µM

====

Test system: UO-31 renal
Assay: NCI tumour cell line growth inhibition, 48 h
assay_endpoint: GI50

1) FC(F)(F)c1ccc(-c2nn3ncccc3c2-c2ccnc(Nc3ccc4c(c3)OCCO4)n2)cc1 :: 3 µM
2) Cn1cc(-c2cc(-c3cn(C)c4ccc(Cl)cc34)[nH]n2)c2cc(Cl)ccc21 :: 3.01 µM
3) Cn1c(=O)n(C)c2cc(CNCCNc3ccnc4cc(Cl)ccc34)ccc21 :: 23.3 µM

====

# maps each entry to its TGI
Tested on: MDA-MB-435
Assay: NCI tumour cell line growth inhibition, 48 h
assay_endpoint: TGI

1) CN=C(Nc1ccc(OC)c2ccccc12)SC :: > 10 µM
2) CC1CN=C(Nc2cccc(F)c2)S1 (stereo unspecified) :: > 100 µM
3) CC(C)(C)NCC(O)COc1c(Br)c(Br)c(Br)c2c1OC(C)(C)C2 (stereo unspecified) :: 3.96 µM
4) CC(=O)C(C(=O)c1ccc(C)cc1)[C@H]1OC(C)(C)O[C@H]1[C@H]1COC(C)(C)O1 (stereo partly specified) :: 9.55 µM
5) Nc1[nH]c(=O)nc2snnc12 :: > 100 µM
6) COc1cc(/C=C2\C[C@H]3[C@@H]4CCC5=CC(=O)CC[C@]5(C)[C@H]4CC[C@]3(C)C2=O)cc(OC)c1OC :: > 39.4 µM
7) NC(=O)CSc1c2cc(O)ccc2nc2ccc(O)cc12 :: > 10 µM
8) CCCN(CCC)c1ccc(C=O)c(Cl)c1 :: > 87.8 µM
9) O=C(c1cccs1)c1nccc2c1cnc1ccccc12 :: > 100 µM
10) COC1(C2c3ccccc3CCN2C(=O)OC(C)(C)C)C(=O)C(c2ccccc2)=C1N(C)C (stereo unspecified) :: 61.6 µM
11) Nc1nccc(NCC2(CO)CC(OCc3ccccc3)C2)n1 (stereo unspecified) :: > 100 µM
12) c1ccc2c(c1)c1ccccc1n2Cn1c2ccccc2c2ccccc21 :: > 100 µM
13) Cc1ccc(O)c(C2=CC3=NNC(=O)C3C(c3cccc(Cl)c3)C2)c1 (stereo unspecified) :: > 100 µM
14) N#[N+]c1c([O-])c2ccccc2c2ccccc12 :: > 100 µM
15) CCOC(=O)c1ccc(NC(=O)NC2=NCCS2)cc1 :: 19.4 µM
16) Cc1ccc(S(=O)(=O)CNC(=O)C(O)(O)C(F)(F)F)cc1 :: > 100 µM
17) COc1cc(C(=O)Oc2c(C(C)=O)sc3c2c(=O)n(-c2ccccc2)c(=S)n3-c2ccccc2)cc(OC)c1OC :: 54.8 µM
18) COc1ccc(-c2oc3cc(OC)c(OC)c(O)c3c(=O)c2OC)cc1 :: > 100 µM
19) C/C(=C(/c1ccccc1)c1ccc(OCC(O)CNCCN2CCOCC2)cc1)c1ccccc1 (stereo unspecified) :: 3.09 µM
20) O=C1/C(=C\c2ccco2)Oc2ccccc21 :: > 100 µM
21) CCCCc1ccc(-n2sc3ncc(-c4ccccc4)cc3c2=O)cc1 :: > 100 µM
22) c1ccc(-c2nc3n(c2-c2ccc4c(c2)OCO4)CCC3)nc1 :: > 25 µM
23) Cc1cccc2[nH]c3c(c(O)cc4[nH]c5cccc(C)c5c(=O)c43)c(=O)c12 :: > 10 µM
24) Cn1c(=O)n(C)c2cc(CNCCNc3ccnc4cc(Cl)ccc34)ccc21 :: 31.9 µM
25) COc1ccc2c(O)c(S(=O)(=O)c3ccc(C)cc3)c(=O)oc2c1OC :: > 100 µM
26) CC1(C)CO[P@@](=S)(c2ccccn2)O[C@@H]1c1ccccc1 :: > 100 µM
27) CC(=O)c1ccc2c(c1)N(CCCN1CCN(CCO)CC1)c1ccccc1S2 :: 3.52 µM
28) Oc1[nH]c2ccccc2c1C1=Nc2ccccc2/C1=N\OCCOC1OCC(O)C(O)C1O (stereo unspecified) :: > 100 µM
29) CC[C@@H](CCCCC1CC[C@H]2CC(=O)C[C@@H]12)OC (stereo partly specified) :: > 100 µM
30) FC(F)(F)c1ccc(-c2nn3ncccc3c2-c2ccnc(Nc3ccc4c(c3)OCCO4)n2)cc1 :: > 25 µM
31) CCOc1cc(/C=C/C(=O)C(C(=O)/C=C/c2ccc(OC(=O)CNc3nc4ccccc4[nH]3)c(OCC)c2)C(=O)CNc2nc3ccccc3[nH]2)ccc1OC(=O)CNc1nc2ccccc2[nH]1 :: 6.92 µM
32) Nc1ccc(-c2nc3ccc(F)cc3s2)cc1Cl :: > 100 µM
33) COc1ccc(C2=[S+]C(c3ccccc3)(c3ccccc3)c3ccccc32)cc1 :: 41.1 µM
34) CCCCCCCCCc1ccc(OCCOCCOCCOCCOCCOCCOCCOCCOCCO)cc1 :: 3.05 µM
35) CCCc1nc(Cl)nc(Cl)c1Cl :: 1.41 µM
36) ClCc1cccc(Cn2cnc3c(Cl)nc(Cl)nc32)c1 :: 3.26 µM
37) O=C(O)c1nc2ccc(C(F)(F)F)cc2nc1Nc1ccc(Cl)c(Cl)c1 :: 19.1 µM
38) Cc1cc(N/N=C/c2nc(-c3ccc(Cl)cc3)oc2C)c2cc(Br)ccc2n1 :: 3.94 µM
39) Cc1cccc2oc3c(c(=O)c12)CC(O)C(C)(C)O3 (stereo unspecified) :: > 100 µM
40) CO[C@H]1/C=C/O[C@@]2(C)Oc3c(C)c(O)c4c(O)c(c(/C=N/N5CCN(C)CC5)c(O)c4c3C2=O)NC(=O)/C(C)=C\C=C\[C@H](C)[C@H](O)[C@@H](C)[C@@H](O)[C@@H](C)[C@H](OC(C)=O)[C@@H]1C :: > 100 µM
41) CCN1[C@@H](C(=O)NC23CCC(C(=O)O)(CC2)CC3)[C@H](c2cccc(Cl)c2F)[C@]2(C(=O)Nc3cc(Cl)ccc32)C12CCCCC2 :: 10.7 µM
